Where these numbers come from: ChEMBL document CHEMBL1146314

Field: IC50. Provide a value for each of the molecules that follow.
assayed system: Matrilysin (Homo sapiens, UniProt P09237)
Sequence (P09237 whole entry): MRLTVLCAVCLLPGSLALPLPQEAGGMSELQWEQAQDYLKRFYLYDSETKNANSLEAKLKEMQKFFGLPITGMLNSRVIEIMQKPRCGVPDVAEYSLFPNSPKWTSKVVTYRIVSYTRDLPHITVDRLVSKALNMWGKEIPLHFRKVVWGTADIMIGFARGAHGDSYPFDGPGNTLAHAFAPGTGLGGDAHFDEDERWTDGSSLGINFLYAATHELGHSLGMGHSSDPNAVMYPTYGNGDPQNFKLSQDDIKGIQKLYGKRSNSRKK
measurement description: Inhibition of human recombinant MMP7
Unit µM implied. Number only.

Ask | Query (molecule): "CN(Cc1cnc2nc(N)nc(N)c2n1)c1ccc(C(=O)N[C@@H](CCC(=O)NO)C(=O)O)cc1" ; field requested: IC50
Reply | 100

Ask | Query (molecule): "Nc1nc2ncc(CNc3ccc(C(=O)N[C@@H](CCC(=O)N[C@@H](Cc4ccccc4)C(=O)NO)C(=O)O)cc3)nc2c(=O)[nH]1" ; field requested: IC50
Reply | 15

Ask | Query (molecule): "CN(Cc1cnc2nc(N)nc(N)c2n1)c1ccc(C(=O)N[C@@H](CCC(=O)N[C@@H](Cc2ccccc2)C(=O)NO)C(=O)O)cc1" ; field requested: IC50
Reply | 44
